# Tested on: MCF-7
# Experiment summary: drug sensitivity score (DSS) (DSS (dimensionless)); higher = more sensitive; extreme values may be limits of the assay
# Applied conditions: 4-OH-tamoxifen in medium 1 µM; 72 h
Label 0 if drug sensitivity score falls below 0.2; label 1 in every other case.

Use these answered entries as a reference point.
- Compound: "CNC(=O)c1ccccc1Sc1ccc2c(/C=C/c3ccccn3)n[nH]c2c1"
  Group label: 1
- Compound: "CO[C@H]1/C=C\\C=C(/C)C(=O)NC2=CC(=O)C(NCCN(C)C)=C(C[C@@H](C)C[C@H](OC)[C@H](O)[C@@H](C)/C=C(\\C)[C@@H]1OC(N)=O)C2=O"
  Group label: 1
- Compound: "CS(=O)(=O)OCCCCOS(C)(=O)=O"
  Group label: 0
- Compound: "Cc1ccc(C(=O)Nc2ccc(CN3CCN(C)CC3)c(C(F)(F)F)c2)cc1C#Cc1cnc2cccnn12"
  Group label: 0
- Compound: "C[C@@]1(C(=O)Nc2ccc(F)nc2)CCCN1c1nc(Nc2cc(C3CC3)n[nH]2)c2cccn2n1"
  Group label: 1
- Compound: "CC[C@]1(O)C[C@@H]2CN(CCc3c([nH]c4ccccc34)[C@@](C(=O)OC)(c3cc4c(cc3OC)N(C)[C@H]3[C@@](O)(C(=O)OC)[C@H](OC(C)=O)[C@]5(CC)C=CCN6CC[C@]43[C@@H]65)C2)C1"
  Group label: 1
- Compound: "CC1=C2C[C@H]3[C@@H](CC=C4C[C@@H](O)CC[C@@]43C)[C@@H]2CC[C@]12O[C@@H]1C[C@H](C)CN[C@H]1[C@H]2C"
  Group label: 0
- Compound: "CC(C)C[C@H](NC(=O)[C@@H](COC(C)(C)C)NC(=O)[C@H](Cc1ccc(O)cc1)NC(=O)[C@H](CO)NC(=O)[C@H](Cc1c[nH]c2ccccc12)NC(=O)[C@H](Cc1cnc[nH]1)NC(=O)[C@@H]1CCC(=O)N1)C(=O)N[C@@H](CCCNC(=N)N)C(=O)N1CCC[C@H]1C(=O)NNC(N)=O [Goserelin acetate]"
  Group label: 0

Enquiry: Hi team, for Cn1cc(C2=Nc3cc(NC(=O)C(N)C4CCCCC4)cc4c3C2=CNNC4=O)cn1 (stereo not drawn) , is the recorded drug sensitivity score at or above 0.2?
Return: 0

Enquiry: Could you tell me if the measured drug sensitivity score of COC1=C2C[C@@H](C)C[C@H](OC)[C@H](O)[C@@H](C)/C=C(\C)[C@H](OC(N)=O)[C@@H](OC)/C=C\C=C(/C)C(=O)NC(=CC1=O)C2=O reaches 0.2 or more?
Return: 1

* * *

# Test system: BT-474 Tam1
# Experiment summary: viability inhibition at highest dose (% inhibition); higher = more growth inhibition
# Applied conditions: 4-OH-tamoxifen in medium 1 µM; 72 h
Outcome measure: viability inhibition at highest dose
Please respond with just the number, no unit label.

The examples below pair each entry with its known result.
- Compound: "CC[C@H](Nc1ncnc2[nH]cnc12)c1nc2cccc(F)c2c(=O)n1-c1ccccc1 [CAL-101] (drug 10000 nM)"
  Study system: "BT-474 Tam1"
  Outcome measure: "viability inhibition at highest dose"
  Experimental result: 8.87
- Compound: "C[C@H]1C[C@@H]2[C@H]([C@@H](O)C[C@@]3(C)[C@H]2CC[C@]3(O)C(=O)CO)[C@@]2(C)C=CC(=O)C=C12 [Methylprednisolone] (drug 10000 nM)"
  Study system: "BT-474 Tam1"
  Outcome measure: "viability inhibition at highest dose"
  Experimental result: -9.86

Please examine the following record next.
Enquiry: Lab request: please report viability inhibition at highest dose under test system BT-474 Tam1 for C=CCn1c(=O)c2cnc(Nc3ccc(N4CCN(C)CC4)cc3)nc2n1-c1cccc(C(C)(C)O)n1 [MK-1775] (drug 10000 nM)
Return: 40.9

* * *

# Tested on: BT-474
# Experiment summary: relative IC50 (midpoint of fitted logistic curve, plateau may be below 50% inhibition; CellTiter-Glo viability); higher = less potent
# Applied conditions: 4-OH-tamoxifen in medium 1 µM; 72 h
# relative IC50 >= 200 nM gives 1, anything below gives -1

Reference set (8 entries):
- Compound: "CN[C@@H]1C[C@H]2O[C@@](C)([C@@H]1OC)n1c3ccccc3c3c4c(c5c6ccccc6n2c5c31)C(=O)N[C@H]4O [UCN-01]"
  Study system: "BT-474"
  Group label: 1
- Compound: "O=c1[nH]cc(F)c(=O)[nH]1 [Fluorouracil]"
  Study system: "BT-474"
  Group label: 1
- Compound: "COCC[n+]1c2c(n(Cc3cnccn3)c1C)C(=O)c1ccccc1C2=O [YM155]"
  Study system: "BT-474"
  Group label: -1
- Compound: "COc1cc2c(N3CCN(C(=O)Nc4ccc(OC(C)C)cc4)CC3)ncnc2cc1OCCCN1CCCCC1 [Tandutinib]"
  Study system: "BT-474"
  Group label: 1
- Compound: "CCN(CC)CCCC(C)Nc1ccnc2cc(Cl)ccc12 (stereo not given) [Chloroquine]"
  Study system: "BT-474"
  Group label: 1
- Compound: "CC(C)(C#N)c1cc(Cn2cncn2)cc(C(C)(C)C#N)c1 [Anastrozole]"
  Study system: "BT-474"
  Group label: 1
- Compound: "Cc1c(CN2CCN(C(=O)[C@H](C)O)CC2)sc2c(N3CCOCC3)nc(-c3cnc(N)nc3)nc12 [GDC-0980]"
  Study system: "BT-474"
  Group label: -1
- Compound: "CN(C)C/C=C/C(=O)Nc1cc2c(Nc3ccc(F)c(Cl)c3)ncnc2cc1O[C@H]1CCOC1 [Afatinib (BIBW2992, Tovok)]"
  Study system: "BT-474"
  Group label: -1

Enquiry: Assess whether reported relative IC50 for CS(=O)(=O)c1ccc(C(=O)Nc2ccc(Cl)c(-c3ccccn3)c2)c(Cl)c1 [Vismodegib] sits at 200 nM or higher.
Return: 1

Enquiry: Hi team, for CCCCCCCCc1ccc(CCC(N)(CO)CO)cc1 [Fingolimod] , is the recorded relative IC50 at or above 200 nM?
Return: 1

Enquiry: Determine whether this compound has relative IC50 no lower than 200 nM: C=CC(=O)Nc1cc2c(Nc3ccc(F)c(Cl)c3)ncnc2cc1OCCCN1CCOCC1 [Canertinib]
Return: -1

Enquiry: Tell me whether relative IC50 is at least 200 nM here: C[C@]12CC[C@@H]3c4ccc(O)cc4C[C@@H](CCCCCCCCC[S+]([O-])CCCC(F)(F)C(F)(F)F)[C@H]3[C@@H]1CC[C@@H]2O (stereo not given in full) [Fulvestrant]
Return: 1

Enquiry: # check: relative IC50 of O=C1c2c(O)ccc(O)c2C(=O)c2c(NCCNCCO)ccc(NCCNCCO)c21 [Mitoxantrone] is greater than or equal to 200 nM
Return: 1

Enquiry: Could you please find out whether COc1cc(CCc2cc(NC(=O)c3ccc(N4CC(C)NC(C)C4)cc3)n[nH]2)cc(OC)c1 (stereo not given) [AZD4547] has relative IC50 that meets 200 nM or exceeds it?
Return: 1

* * *

# Tested on: ZR-75-1
# Experiment summary: viability inhibition at highest dose (% inhibition); higher = more growth inhibition
# Applied conditions: 4-OH-tamoxifen in medium 0 µM; 72 h
viability inhibition at highest dose values for the compounds below.
Kindly provide the number alone.

- Compound: "Cn1cncc1[C@@](N)(c1ccc(Cl)cc1)c1ccc2c(c1)c(-c1cccc(Cl)c1)cc(=O)n2C [Tipifarnib (Zarnestra)] (drug 10000 nM)"
  viability inhibition at highest dose: 51
- Compound: "COc1ncc(-c2ccc3nccc(-c4ccnnc4)c3c2)cc1NS(=O)(=O)c1ccc(F)cc1F (drug 1000 nM)"
  viability inhibition at highest dose: 76.9

Enquiry: Which viability inhibition at highest dose is listed for COC(=O)C[C@](O)(CCCC(C)(C)O)C(=O)O[C@@H]1C(OC)=C[C@]23CCCN2CCc2cc4c(cc2[C@H]13)OCO4 [Omacetaxine (Homoharringtonine)] (drug 10000 nM) ?
Return: 54.1

Enquiry: What value of viability inhibition at highest dose has been recorded for this entry: Cc1ccc(Nc2nccc(N(C)c3ccc4c(C)n(C)nc4c3)n2)cc1S(N)(=O)=O [Pazopanib] (drug 10000 nM)
Return: -3.01

Enquiry: Can you look up the measured viability inhibition at highest dose of N.N.[Cl][Pt][Cl] [Cisplatin] (drug 10000 nM) for me?
Return: -8.66

Enquiry: Field request: viability inhibition at highest dose | item: CN1CCC(COc2cnc(-c3cccc(Cn4nc(-c5cccc(C#N)c5)ccc4=O)c3)nc2)CC1 (drug 1000 nM)
Return: -2.72

Enquiry: I'd like to know its viability inhibition at highest dose. The compound in question is N#CC[C@H](C1CCCC1)n1cc(-c2ncnc3[nH]ccc23)cn1 (drug 10000 nM)
Return: -0.421

* * *

# System: MCF-7
# Experiment summary: viability inhibition at highest dose (% inhibition); higher = more growth inhibition
# Applied conditions: 4-OH-tamoxifen in medium 0 µM; 72 h
Where a name gives a salt, the structure may show the parent alone.
Outcome measure: viability inhibition at highest dose
Give the value as a plain number.

Some solved cases for reference:
- Molecule: "CC(O)(CS(=O)(=O)c1ccc(F)cc1)C(=O)Nc1ccc(C#N)c(C(F)(F)F)c1 (configuration not stated) [Bicalutamide] (drug 10000 nM)"
  Study system: "MCF-7"
  Outcome measure: "viability inhibition at highest dose"
  Experimental result: -0.676
- Molecule: "O=C(/C=C/c1cccnc1)NCCCCC1CCN(C(=O)c2ccccc2)CC1 [Daporinad (FK-866 HCl)] (drug 1000 nM)"
  Study system: "MCF-7"
  Outcome measure: "viability inhibition at highest dose"
  Experimental result: 76.6
- Molecule: "C=C(c1ccc(C(=O)O)cc1)c1cc2c(cc1C)C(C)(C)CCC2(C)C [Bexarotene] (drug 10000 nM)"
  Study system: "MCF-7"
  Outcome measure: "viability inhibition at highest dose"
  Experimental result: -1.91

Enquiry: Reported viability inhibition at highest dose for CN1CC[C@H](c2c(O)cc(O)c3c(=O)cc(-c4ccccc4Cl)oc23)[C@H](O)C1 [Alvocidib (Flavopiridol)] (drug 10000 nM) : what is it?
Return: 62.9

Enquiry: Fill blank: measured viability inhibition at highest dose of the molecule COc1ncc(-c2ccc3nccc(-c4ccnnc4)c3c2)cc1NS(=O)(=O)c1ccc(F)cc1F (drug 1000 nM) is ____.
Return: 68.6

Enquiry: Consider the molecule Cc1ccc(-n2nc(C(C)(C)C)cc2NC(=O)Nc2ccc(OCCN3CCOCC3)c3ccccc23)cc1 [Doramapimod (BIRB 796)] (drug 10000 nM) and give its measured viability inhibition at highest dose.
Return: 17.6

Enquiry: Value lookup for viability inhibition at highest dose; key = CO[C@@H](C(=O)N1Cc2[nH]nc(NC(=O)c3ccc(N4CCN(C)CC4)cc3)c2C1)c1ccccc1 (drug 10000 nM)
Return: 20.9
